Entries and their pIC50 values follow.
Target system: Human recombinant full-length MNK1 protein (Homo sapiens, UniProt Q9BUB5)
Construct: Human recombinant full-length MNK1 protein
Sequence (Q9BUB5 whole entry): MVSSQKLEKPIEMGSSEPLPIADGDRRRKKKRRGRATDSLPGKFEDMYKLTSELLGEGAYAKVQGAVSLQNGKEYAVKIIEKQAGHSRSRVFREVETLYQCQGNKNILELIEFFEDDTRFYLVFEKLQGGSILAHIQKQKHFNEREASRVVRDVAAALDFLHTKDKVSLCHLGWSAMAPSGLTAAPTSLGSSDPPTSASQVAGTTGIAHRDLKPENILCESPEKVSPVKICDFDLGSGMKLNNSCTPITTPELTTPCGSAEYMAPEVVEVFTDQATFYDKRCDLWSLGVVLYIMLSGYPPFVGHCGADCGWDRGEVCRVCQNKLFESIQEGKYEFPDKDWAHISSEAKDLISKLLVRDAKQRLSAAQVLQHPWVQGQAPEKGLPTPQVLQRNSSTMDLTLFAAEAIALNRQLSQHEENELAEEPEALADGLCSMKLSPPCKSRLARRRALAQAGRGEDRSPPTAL
Experiment: MNK1 inhibitory activity assay (ADP-Glo in vitro kinase assay)
Condition info: 10 concentration points
pIC50: −log10 of the molar value. Where a name gives a salt, the structure may show the parent alone.

{"Compound": "COc1cc2c(cnn2C(=O)C(C)C)cc1Nc1cc(NC(=O)C2CC2)ncn1", "Target system": "Human recombinant full-length MNK1 protein (Homo sapiens, UniProt Q9BUB5)", "pIC50": 6.65}
{"Compound": "COc1cc2[nH]ncc2cc1Nc1ncnc(N)c1C1=CCC(C(=O)O)CC1 (stereo not shown) [Compound 32, hydrochloride]", "Target system": "Human recombinant full-length MNK1 protein (Homo sapiens, UniProt Q9BUB5)", "pIC50": 6.78}
{"Compound": "CNc1cc(Nc2cc3cn[nH]c3cc2OC)ncn1", "Target system": "Human recombinant full-length MNK1 protein (Homo sapiens, UniProt Q9BUB5)", "pIC50": 6.85}
{"Compound": "COc1cc2[nH]ncc2cc1Nc1ncnc(N)c1C1=CCC(C(=O)N2CCN(C)CC2)CC1 (stereo not shown) [Compound 33, formate]", "Target system": "Human recombinant full-length MNK1 protein (Homo sapiens, UniProt Q9BUB5)", "pIC50": 7.02}

* * *

Entries and their pIC50 values follow.
Target system: Human recombinant full-length MNK1 protein (Homo sapiens, UniProt Q9BUB5)
Construct: Human recombinant full-length MNK1 protein
Experiment: MNK1 inhibitory activity assay (ADP-Glo in vitro kinase assay)
Condition info: 10 concentration points
pIC50: −log10 of the molar value. Structures can show the parent of a compound that is named as a salt.
Readout type: pIC50

{"Molecule": "COc1cc2ncn(C(=O)OC(C)(C)C)c2cc1Nc1cc(NC(=O)C2CC2)ncn1 [Compound 61]", "Measured value": 6.23}
{"Molecule": "COc1cc2[nH]ncc2cc1Nc1ncncc1OCCN1CCOCC1 [Compound 55]", "Measured value": 6.73}
{"Molecule": "COc1cc2[nH]ncc2cc1Nc1cc(NC(=O)c2ccccc2)ncn1 [Compound 10]", "Measured value": 7.62}
{"Molecule": "COc1cc2[nH]ncc2cc1Nc1ncnc(N)c1C1=CCC(C(=O)N(C)C)CC1 (stereo not shown) [Compound 34, formate]", "Measured value": 6.35}
{"Molecule": "COc1c(Nc2ncncc2OCCN(C)C)ccc2c1CNC2=O [Compound 77]", "Measured value": 6.05}
{"Molecule": "COc1cc2[nH]ncc2cc1Nc1ncnc2[nH]cnc12 [Compound 58]", "Measured value": 8.21}
{"Molecule": "COc1cc2[nH]ncc2cc1Nc1cc(NC2CC2)ncn1 [Compound 31, formate]", "Measured value": 6.90}
{"Molecule": "COc1cc2[nH]ncc2cc1Nc1ncnc(N)c1C [Compound 47]", "Measured value": 7.10}
{"Molecule": "COc1c(Nc2cc(NC(=O)C3CC3)ncn2)ccc2c1C(C)(C)N(C)C2=O [Compound 73]", "Measured value": 6.73}
{"Molecule": "COc1c(Nc2ncnc3[nH]cnc23)ccc2c1CNC2=O [Compound 80]", "Measured value": 7.93}
{"Molecule": "COc1cc2[nH]ncc2cc1Nc1cc(NC(=O)C(C)C)ncn1 [Compound 19]", "Measured value": 7.35}
{"Molecule": "COc1cc(Nc2cc3cn[nH]c3cc2OC)ncn1 [Compound 51]", "Measured value": 6.70}
{"Molecule": "COc1cc2[nH]ncc2cc1Nc1ncnc(N)c1C(=O)N1CCOCC1 [Compound 41]", "Measured value": 5.98}
{"Molecule": "COc1c(Nc2ncncc2OCCN2CCOCC2)ccc2c1CNC2=O [Compound 76]", "Measured value": 6.24}
{"Molecule": "CCOC(=O)c1c(N)ncnc1Nc1cc2cnn(C(=O)OC(C)(C)C)c2cc1OC [Compound 35]", "Measured value": 7.49}
{"Molecule": "COc1cc2[nH]ncc2cc1Nc1cc(Nc2ncccc2Cl)ncn1 [Compound 28]", "Measured value": 6.27}
{"Molecule": "CCOc1cncnc1Nc1cc2cn[nH]c2cc1OC [Compound 56]", "Measured value": 7.70}
{"Molecule": "COc1c(Nc2cc(N)ncn2)ccc2c1CNC2=O [Compound 66, hydrochloride]", "Measured value": 7.41}
{"Molecule": "COc1cc2[nH]ncc2cc1Nc1cc(Nc2cc(Cl)ccn2)ncn1 [Compound 21]", "Measured value": 7.11}

* * *

Target system: Human recombinant full-length MNK1 protein (Homo sapiens, UniProt Q9BUB5)
Construct: Human recombinant full-length MNK1 protein
Experiment: MNK1 inhibitory activity assay (ADP-Glo in vitro kinase assay)
Condition info: 10 concentration points
Readout type: log10 IC50 (log10 of the value in nM)

{"Compound": "COc1cc2[nH]ncc2cc1Nc1cc(Nc2cnccn2)ncn1 [Compound 29]", "Readout type": "log10 IC50", "Measured value": 1.76}
{"Compound": "COc1c(N)ncnc1Nc1ccc2c(c1OC)CNC2=O [Compound 71]", "Readout type": "log10 IC50", "Measured value": 2.11}
{"Compound": "COc1cc2c(cc1Nc1cc(NC(=O)C3CC3)ncn1)ncn2C(=O)OC(C)(C)C [Compound 60]", "Readout type": "log10 IC50", "Measured value": 2.90}
{"Compound": "CCOc1cc2[nH]ncc2cc1Nc1cc(NC(=O)C2CC2)ncn1 [Compound 6]", "Readout type": "log10 IC50", "Measured value": 1.47}
{"Compound": "CNc1cncnc1Nc1cc2cn[nH]c2cc1OC [Compound 62]", "Readout type": "log10 IC50", "Measured value": 1.88}
{"Compound": "COc1c(Nc2ncncc2OCCO)ccc2c1CNC2=O [Compound 78]", "Readout type": "log10 IC50", "Measured value": 1.29}
{"Compound": "COc1cc2[nH]ncc2cc1Nc1cc(N)ncn1 [Compound 9]", "Readout type": "log10 IC50", "Measured value": 2.47}
{"Compound": "COc1cc2[nH]ncc2cc1Nc1cc(Nc2cccc(Cl)n2)ncn1 [Compound 23]", "Readout type": "log10 IC50", "Measured value": 1.50}
{"Compound": "COc1cn2nccc2cc1Nc1cc(NC(=O)C2CC2)ncn1 [Compound 63]", "Readout type": "log10 IC50", "Measured value": 1.99}
{"Compound": "COc1cc2[nH]ncc2cc1Nc1ncnc(N)c1C#N [Compound 42]", "Readout type": "log10 IC50", "Measured value": 2.78}

* * *

Target system: Human recombinant full-length MNK1 protein (Homo sapiens, UniProt Q9BUB5)
Construct: Human recombinant full-length MNK1 protein
Experiment: MNK1 inhibitory activity assay (ADP-Glo in vitro kinase assay)
Condition info: 10 concentration points
Binarize IC50 at 20 nM; below is condition met, at or above is condition not met.

{"Compound": "COc1c(Nc2cc(Nc3cc(Cl)ccn3)ncn2)ccc2c1CNC2=O [Compound 87]", "Target system": "Human recombinant full-length MNK1 protein (Homo sapiens, UniProt Q9BUB5)", "Category": "condition met"}
{"Compound": "COc1cc2[nH]ncc2cc1Nc1cc(NC(=O)C(C)(C)C)ncn1 [Compound 12]", "Target system": "Human recombinant full-length MNK1 protein (Homo sapiens, UniProt Q9BUB5)", "Category": "condition not met"}
{"Compound": "COc1cc2[nH]ncc2cc1Nc1cc(NC(=O)C2CC2)ncn1 [Compound 4]", "Target system": "Human recombinant full-length MNK1 protein (Homo sapiens, UniProt Q9BUB5)", "Category": "condition met"}
{"Compound": "CCOC(=O)n1ncc2cc(Nc3cc(NC(=O)C4CC4)ncn3)c(OC)cc21 [Compound 18]", "Target system": "Human recombinant full-length MNK1 protein (Homo sapiens, UniProt Q9BUB5)", "Category": "condition met"}
{"Compound": "COc1cc2[nH]ncc2cc1Nc1ncnc(N)c1-c1ccccn1 [Compound 44]", "Target system": "Human recombinant full-length MNK1 protein (Homo sapiens, UniProt Q9BUB5)", "Category": "condition not met"}
{"Compound": "COc1cc2[nH]ncc2cc1Nc1ncncc1Nc1ccccc1 [Compound 57]", "Target system": "Human recombinant full-length MNK1 protein (Homo sapiens, UniProt Q9BUB5)", "Category": "condition not met"}
{"Compound": "COc1cc2[nH]ncc2cc1Nc1ncnc(NC(=O)C2CC2)c1C [Compound 48]", "Target system": "Human recombinant full-length MNK1 protein (Homo sapiens, UniProt Q9BUB5)", "Category": "condition not met"}
{"Compound": "COc1cc2c(cnn2C(=O)C2CCCCC2)cc1Nc1cc(NC(=O)C2CC2)ncn1 [Compound 8]", "Target system": "Human recombinant full-length MNK1 protein (Homo sapiens, UniProt Q9BUB5)", "Category": "condition not met"}
{"Compound": "COc1cc2[nH]ncc2cc1Nc1ncncc1OC [Compound 52]", "Target system": "Human recombinant full-length MNK1 protein (Homo sapiens, UniProt Q9BUB5)", "Category": "condition met"}
{"Compound": "COc1cc2[nH]ncc2cc1Nc1cc(Nc2ncc(Cl)cn2)ncn1 [Compound 26]", "Target system": "Human recombinant full-length MNK1 protein (Homo sapiens, UniProt Q9BUB5)", "Category": "condition not met"}
{"Compound": "COc1cc2[nH]ncc2cc1Nc1ncnc(N)c1C(=O)N(C)C [Compound 40]", "Target system": "Human recombinant full-length MNK1 protein (Homo sapiens, UniProt Q9BUB5)", "Category": "condition not met"}
{"Compound": "CCOC(=O)c1c(NC(C)=O)ncnc1Nc1cc2cnn(C(=O)OC(C)(C)C)c2cc1OC [Compound 37]", "Target system": "Human recombinant full-length MNK1 protein (Homo sapiens, UniProt Q9BUB5)", "Category": "condition not met"}
{"Compound": "COc1c(Nc2cc(Nc3ccc(Cl)cn3)ncn2)ccc2c1CNC2=O [Compound 85]", "Target system": "Human recombinant full-length MNK1 protein (Homo sapiens, UniProt Q9BUB5)", "Category": "condition met"}
{"Compound": "COCCOc1cncnc1Nc1cc2cn[nH]c2cc1OC [Compound 53]", "Target system": "Human recombinant full-length MNK1 protein (Homo sapiens, UniProt Q9BUB5)", "Category": "condition not met"}
